B1: Gamma-crystallin C, residues 4 to 79; numbered along this chain, P07315 (parent)
chain: ITFYEDRAFQGRSYETTTDCPNLQPYFSRCNSIRVESGCWMLYERPNYQGQQYLLRRGEYPDYQQWMGLSDSIRSC

- Variants of: B1
- test: abundance fitness (aPCA) (normalised: wild type 0, dead -1); higher = more abundant; growth selection in yeast, the domain comes from the species named
- experimental_setup: Homo sapiens
Rule: 1.0 for abundance fitness not less than -0.05, 0.0 for anything less.

Identify whether the reported abundance fitness of the following variant is -0.05 or greater: "P25L"
1.0

Identify whether the reported abundance fitness of the following variant is -0.05 or greater: "R12P"
0.0

Identify whether the reported abundance fitness of the following variant is -0.05 or greater: "C76T"
1.0

Identify whether the reported abundance fitness of the following variant is -0.05 or greater: "Y4G"
0.0

Identify whether the reported abundance fitness of the following variant is -0.05 or greater: "C20Y"
0.0

Identify whether the reported abundance fitness of the following variant is -0.05 or greater: "C20L"
1.0

Identify whether the reported abundance fitness of the following variant is -0.05 or greater: "S32Q"
0.0

Identify whether the reported abundance fitness of the following variant is -0.05 or greater: "R74C"
1.0

Identify whether the reported abundance fitness of the following variant is -0.05 or greater: "W66D"
0.0

Identify whether the reported abundance fitness of the following variant is -0.05 or greater: "Y26I"
1.0

Identify whether the reported abundance fitness of the following variant is -0.05 or greater: "L69W"
1.0

Identify whether the reported abundance fitness of the following variant is -0.05 or greater: "Y26N"
1.0

Identify whether the reported abundance fitness of the following variant is -0.05 or greater: "F9S"
0.0

Identify whether the reported abundance fitness of the following variant is -0.05 or greater: "S75I"
0.0

Identify whether the reported abundance fitness of the following variant is -0.05 or greater: "Y26S"
1.0

Identify whether the reported abundance fitness of the following variant is -0.05 or greater: "R56A"
1.0

Identify whether the reported abundance fitness of the following variant is -0.05 or greater: "R12V"
1.0

Identify whether the reported abundance fitness of the following variant is -0.05 or greater: "Q10K"
1.0

Identify whether the reported abundance fitness of the following variant is -0.05 or greater: "P61A"
1.0

Identify whether the reported abundance fitness of the following variant is -0.05 or greater: "T16L"
1.0

Identify whether the reported abundance fitness of the following variant is -0.05 or greater: "Y26R"
1.0

Identify whether the reported abundance fitness of the following variant is -0.05 or greater: "A8V"
0.0

Identify whether the reported abundance fitness of the following variant is -0.05 or greater: "T16F"
1.0

Identify whether the reported abundance fitness of the following variant is -0.05 or greater: "E59G"
1.0

Identify whether the reported abundance fitness of the following variant is -0.05 or greater: "D19M"
1.0

Identify whether the reported abundance fitness of the following variant is -0.05 or greater: "E59P"
1.0

Identify whether the reported abundance fitness of the following variant is -0.05 or greater: "T16E"
0.0

Identify whether the reported abundance fitness of the following variant is -0.05 or greater: "C20Q"
1.0

Identify whether the reported abundance fitness of the following variant is -0.05 or greater: "T2Y"
1.0

Identify whether the reported abundance fitness of the following variant is -0.05 or greater: "S37H"
0.0

Identify whether the reported abundance fitness of the following variant is -0.05 or greater: "E15N"
1.0

Identify whether the reported abundance fitness of the following variant is -0.05 or greater: "T18A"
1.0

Identify whether the reported abundance fitness of the following variant is -0.05 or greater: "Q51I"
1.0

Identify whether the reported abundance fitness of the following variant is -0.05 or greater: "Y53R"
1.0

Identify whether the reported abundance fitness of the following variant is -0.05 or greater: "P21M"
1.0

Identify whether the reported abundance fitness of the following variant is -0.05 or greater: "Q65R"
1.0

Identify whether the reported abundance fitness of the following variant is -0.05 or greater: "G11Q"
0.0

Identify whether the reported abundance fitness of the following variant is -0.05 or greater: "Y43R"
0.0

Identify whether the reported abundance fitness of the following variant is -0.05 or greater: "F9Q"
0.0

Identify whether the reported abundance fitness of the following variant is -0.05 or greater: "D6P"
0.0

Identify whether the reported abundance fitness of the following variant is -0.05 or greater: "R34V"
1.0

Identify whether the reported abundance fitness of the following variant is -0.05 or greater: "L69F"
1.0

Identify whether the reported abundance fitness of the following variant is -0.05 or greater: "Q51D"
0.0

Identify whether the reported abundance fitness of the following variant is -0.05 or greater: "P25V"
1.0

Identify whether the reported abundance fitness of the following variant is -0.05 or greater: "Q51E"
1.0

Identify whether the reported abundance fitness of the following variant is -0.05 or greater: "C39F"
1.0

Identify whether the reported abundance fitness of the following variant is -0.05 or greater: "V35A"
0.0

Identify whether the reported abundance fitness of the following variant is -0.05 or greater: "D6R"
1.0

Identify whether the reported abundance fitness of the following variant is -0.05 or greater: "G38A"
1.0

Identify whether the reported abundance fitness of the following variant is -0.05 or greater: "I73H"
0.0

Identify whether the reported abundance fitness of the following variant is -0.05 or greater: "C76R"
0.0

Identify whether the reported abundance fitness of the following variant is -0.05 or greater: "N22G"
0.0

Identify whether the reported abundance fitness of the following variant is -0.05 or greater: "L42G"
0.0

Identify whether the reported abundance fitness of the following variant is -0.05 or greater: "S28N"
1.0

Identify whether the reported abundance fitness of the following variant is -0.05 or greater: "R45T"
1.0

Identify whether the reported abundance fitness of the following variant is -0.05 or greater: "D19I"
1.0

Identify whether the reported abundance fitness of the following variant is -0.05 or greater: "L42T"
0.0

Identify whether the reported abundance fitness of the following variant is -0.05 or greater: "Y14S"
1.0

Identify whether the reported abundance fitness of the following variant is -0.05 or greater: "T17Q"
1.0

Identify whether the reported abundance fitness of the following variant is -0.05 or greater: "W40V"
1.0

Identify whether the reported abundance fitness of the following variant is -0.05 or greater: "L55H"
0.0

Identify whether the reported abundance fitness of the following variant is -0.05 or greater: "L55M"
0.0

Identify whether the reported abundance fitness of the following variant is -0.05 or greater: "R57M"
1.0

Identify whether the reported abundance fitness of the following variant is -0.05 or greater: "T2P"
0.0

Identify whether the reported abundance fitness of the following variant is -0.05 or greater: "E5I"
1.0

Identify whether the reported abundance fitness of the following variant is -0.05 or greater: "Q64C"
1.0

Identify whether the reported abundance fitness of the following variant is -0.05 or greater: "W40C"
1.0

Identify whether the reported abundance fitness of the following variant is -0.05 or greater: "T18K"
0.0

Identify whether the reported abundance fitness of the following variant is -0.05 or greater: "Q64G"
1.0

Identify whether the reported abundance fitness of the following variant is -0.05 or greater: "E36P"
1.0

Identify whether the reported abundance fitness of the following variant is -0.05 or greater: "S70V"
1.0

Identify whether the reported abundance fitness of the following variant is -0.05 or greater: "T16K"
1.0

Identify whether the reported abundance fitness of the following variant is -0.05 or greater: "D62A"
1.0

Identify whether the reported abundance fitness of the following variant is -0.05 or greater: "F3N"
0.0

Identify whether the reported abundance fitness of the following variant is -0.05 or greater: "S13V"
1.0

Identify whether the reported abundance fitness of the following variant is -0.05 or greater: "E44P"
0.0

Identify whether the reported abundance fitness of the following variant is -0.05 or greater: "Q51T"
0.0

Identify whether the reported abundance fitness of the following variant is -0.05 or greater: "Y53G"
0.0

Identify whether the reported abundance fitness of the following variant is -0.05 or greater: "Y53I"
1.0

Identify whether the reported abundance fitness of the following variant is -0.05 or greater: "S37I"
1.0

Identify whether the reported abundance fitness of the following variant is -0.05 or greater: "Q65Y"
1.0

Identify whether the reported abundance fitness of the following variant is -0.05 or greater: "N31L"
0.0

Identify whether the reported abundance fitness of the following variant is -0.05 or greater: "F27I"
0.0

Identify whether the reported abundance fitness of the following variant is -0.05 or greater: "D19A"
0.0

Identify whether the reported abundance fitness of the following variant is -0.05 or greater: "R45A"
1.0

Identify whether the reported abundance fitness of the following variant is -0.05 or greater: "R7T"
0.0

Identify whether the reported abundance fitness of the following variant is -0.05 or greater: "Q24P"
0.0

Identify whether the reported abundance fitness of the following variant is -0.05 or greater: "P25M"
1.0

Identify whether the reported abundance fitness of the following variant is -0.05 or greater: "S37C"
0.0

Identify whether the reported abundance fitness of the following variant is -0.05 or greater: "Q24A"
0.0

Hey, just so you know, these numbers are from the Human Domainome abundance scans (Beltran et al. 2025).
